# target under test: T1, mouse SIRPβ1 on CHO cells (mouse)
# T1 construct: Whole entry
# T1 chain: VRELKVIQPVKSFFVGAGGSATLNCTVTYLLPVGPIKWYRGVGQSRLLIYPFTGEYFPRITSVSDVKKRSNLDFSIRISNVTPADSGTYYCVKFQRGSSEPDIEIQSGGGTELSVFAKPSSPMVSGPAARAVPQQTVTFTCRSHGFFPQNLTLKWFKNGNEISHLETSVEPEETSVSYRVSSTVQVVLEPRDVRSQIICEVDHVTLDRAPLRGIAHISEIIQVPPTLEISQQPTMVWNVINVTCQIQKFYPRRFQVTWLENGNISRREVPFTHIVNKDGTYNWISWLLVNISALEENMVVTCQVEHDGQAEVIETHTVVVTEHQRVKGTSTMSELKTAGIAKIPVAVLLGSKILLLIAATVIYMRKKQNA
# assay protocol: flow cytometry;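 further: antibody binding to cells detected with a PE-labelled secondary antibody, given as mean fluorescence intensity relative to background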
readout label: FOB (fold over background)
Give bare numbers, in fold over background.

Example cases with answers are listed next.
>  <binder>
SB-2-9 (antibody, V domains shown, IgG) VH: QVQLVESGGGVVQPGRSLRLSCAASGFTFKTYGMHWVRQAPGKGLEWVAHIWYEGSNKVYADSVKGRFTISRDNSKNTLYLQMNSLRAEDTAVYYCARDQTAAAAIWGMDVWGQGTTVTVSS VL: EVVLTQSPGTLSLSPGERATLSCRASQSVSSSYLAWYQQKPGQAPRLLIYGASSRATGIPDRFSGSGSGTDFTLTISRLEPEDFAVYYCQQSSSHPFTFGGGTKVEIK

>  <quantitative result>
2

$$$$
>  <binder>
SB-8-14 (antibody, V domains shown, IgG) VH: QVQLQESGPGLVKPSETLSLTCAVSGYSISPHYYWGWIRQPPGKGLEWIGSIYHSGHTYYNPSLKSRVTISVDTSKNQFSLKLSSVTAADTAVYYCARGGAMTPAGMDVWGQGTTVTVSS VL: EIVMTQSPGTLSLSPGERATLSCRASQSVSSSYLAWYQQKPGQAPRLLIYGASNRATGIPDRFSGSGSGTDFTLTISRLEPEDFAVYYCQQVYSSPYTFGGGTKVEIK

>  <quantitative result>
1

$$$$
>  <binder>
SB-8 (antibody, V domains shown, IgG; also called SB-8 (p)) VH: QVQLQESGPGLVKPSETLSLTCAVSGYSISSGYYWGWIRQPPGKGLEWIGSIYHSGSTYYNPSLKSRVTISVDTSKNQFSLKLSSVTAADTAVYYCARGGAMTPAGMDVWGQGTTVTVSS VL: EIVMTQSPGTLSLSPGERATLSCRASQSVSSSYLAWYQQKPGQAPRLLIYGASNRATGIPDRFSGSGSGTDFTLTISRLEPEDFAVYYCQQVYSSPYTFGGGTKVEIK

>  <quantitative result>
2

$$$$
>  <binder>
SB-2 (antibody, V domains shown, IgG; also called SB-2 (p)) VH: QVQLVESGGGVVQPGRSLRLSCAASGFTFSSYGMNWVRQAPGKGLEWVAVIWYDGSNKYYADSVKGRFTISRDNSKNTLYLQMNSLRAEDTAVYYCARDQTAAAAIWGMDVWGQGTTVTVSS VL: EIVLTQSPGTLSLSPGERATLSCRASQSVSSSYLAWYQQKPGQAPRLLIYGASSRATGIPDRFSGSGSGTDFTLTISRLEPEDFAVYYCQQSSSHPFTFGGGTKVEIK

>  <quantitative result>
1

$$$$
>  <binder>
SB-40-20 (antibody, V domains shown, IgG) VH: QVQLVQSGAEVKKPGASVKVSCKASGYTFTSFYISWVRQAPGQGLEWMGIINPSSGHTNYAQKLQGRVTMTTDTSTSTAYMELSSLRSEDTAVYYCARDTGEYSYSPHGMDVWGQGTTVTVSS VL: EIVLTQSPATLSLSPGERATLSCRASQSVSSYLAWYQQKPGQAPRLLIYDSSNRATGIPARFSGSGSGTDFTLTISSLEPEDFAVYYCQQRDEHPPWTFGGGTKVEIK

>  <quantitative result>
2

$$$$
>  <binder>
SB-40-19 (antibody, V domains shown, IgG) VH: QVQLVQSGAEVKKPGASVKVSCKASGYTFTSYYMVWVRQAPGQGLEWMGIINPSSGATNYAQKFQGRVTMTTDTSTSTAYMELRSLRSDDTAVYYCARDTGEYSYSPHGMDVWGQGTTVTVSS VL: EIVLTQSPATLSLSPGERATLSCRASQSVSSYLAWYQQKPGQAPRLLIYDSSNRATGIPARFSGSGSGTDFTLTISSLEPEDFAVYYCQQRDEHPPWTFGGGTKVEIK

>  <quantitative result>
2

$$$$
>  <binder>
SB-2-8 (antibody, V domains shown, IgG) VH: QVQLVESGGGVVQPGRSLRLSCAASGFTFLDYGMHWVRQAPGKGLEWVSAISAFAGSTYADSVKGRFTISRDNSKNTLYLQMNSLRAEDTAVYYCARDQTAAAAIWGMDVWGQGTTVTVSS VL: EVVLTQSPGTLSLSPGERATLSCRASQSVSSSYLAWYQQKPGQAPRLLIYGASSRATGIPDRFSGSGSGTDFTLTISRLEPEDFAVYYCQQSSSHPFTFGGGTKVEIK

>  <quantitative result>
1

$$$$
>  <binder>
SB-40-21 (antibody, V domains shown, IgG) VH: QVQLVQSGAEVKKPGASVKVSCKASGYTFTSYYMVWVRQAPGQGLEWMGIINPSSGDTNYAQKFQGRVTMTRDTSISTAYMELSRLRSDDTAVYYCARDTGEYSYSPHGMDVWGQGTTVTVSS VL: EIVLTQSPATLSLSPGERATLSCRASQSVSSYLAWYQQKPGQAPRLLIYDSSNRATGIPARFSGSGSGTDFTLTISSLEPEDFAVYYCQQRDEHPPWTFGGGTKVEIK

>  <quantitative result>
2

$$$$
>  <binder>
SB-8-13 (antibody, V domains shown, IgG) VH: QVQLQESGPGLVKPSETLSLTCAVSGYSISAHYYWGWIRQPPGKGLEWIGSIFHSGHTYYNPSLKSRVTISVDTSKNQFSLKLSSVTAADTAVYYCARGGAMTPAGMDVWGQGTTVTVSS VL: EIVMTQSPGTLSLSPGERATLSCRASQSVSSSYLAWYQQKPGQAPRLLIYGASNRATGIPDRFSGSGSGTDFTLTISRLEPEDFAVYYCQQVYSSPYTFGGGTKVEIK

>  <quantitative result>
2

$$$$
>  <binder>
SB-8-16 (antibody, V domains shown, IgG) VH: QVQLQESGPGLVKPSETLSLTCAVSGYSISAHYYWGWIRQPPGKGLEWIGSIFHSGHTYYNPSLKSRVTISVDTSKNQFSLKLSSVTAADTAVYYCARAGAMTPAGMDVWGQGTTVTVSS VL: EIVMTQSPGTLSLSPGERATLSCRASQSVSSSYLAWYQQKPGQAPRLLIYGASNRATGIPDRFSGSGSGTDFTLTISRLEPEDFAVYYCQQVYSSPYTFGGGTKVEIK

>  <quantitative result>
2

$$$$

Let us examine a further case.
For this binder ( SB-1-4 (antibody, V domains shown, IgG) VH: QVQLVESGGGVVQPGGSLRLSCAASGFTFSAYGMNWVRQAPGKGLEWVSAIRASGGATYYADSVKGRFTISRDNSKNTLYLQMNSLRAEDTAVYYCAKDFTEVVGWLGMDVWGQGTTVTVSS VL: EIVMTQSPGTLSLSPGERATLSCRASQSVSSSYLAWYQQKPGQAPRLLIYGASSRATGIPDRFSGSGSGTDFTLTISRLEPEDFAVYYCQLLGSSPRTFGGGTKVEIK ), measured FOB is 1
